Data provenance: ChEMBL document CHEMBL3885881

Species: Rattus norvegicus
Assay: DrugMatrix - Regimen: Daily Repeat
Type: toxicity, organism-based, Sprague-Dawley
Set-up: regimen Daily Repeat, gender Male, age 6-8 weeks
Conditions: in vivo, po, 0 mg/kg, 120 h, tissue Blood, route oral GAVAGE, dose level Control, time 5 day, vehicle 100 % WATER
# reported HEMOGLOBIN; entries follow
Unit G/DL implied. Number only.

O=P1(N(CCCl)CCCl)NCCCO1 (stereo not given) [CYCLOPHOSPHAMIDE ANHYDROUS]    13.17
Nc1ccc(S(=O)(=O)Nc2ncccn2)cc1    14.38
O=C(O)c1cc(=O)c2c(OCC(O)COc3cccc4oc(C(=O)O)cc(=O)c34)cccc2o1    14.77
CN1C2CCCC1CC(NC(=O)c1nn(C)c3ccccc13)C2 (stereo not given)    13.47
Nc1ccc(S(=O)(=O)Nc2nccs2)cc1    13.47
OCCO    13.72
CCOC(N)=O    13.9
CCN[C@@H](C)Cc1cccc(C(F)(F)F)c1    14.38

Q: For the compound CCN(CC)CC#CCOC(=O)C(O)(c1ccccc1)C1CCCCC1 (stereo not given) , report HEMOGLOBIN.
Result: 14.12

Q: For the compound `CCCCCCCCCCCCCCCC[n+]1ccccc1.[Br-]` , report HEMOGLOBIN.
Result: 14.48

###

Species on record: Rattus norvegicus
Assay: DrugMatrix - Regimen: Daily Repeat
Format: toxicity, organism-based, Sprague-Dawley
Set-up: regimen Daily Repeat, gender Male, age 6-8 weeks
Conditions: in vivo, po, 0 mg/kg, 120 h, tissue Blood, route oral GAVAGE, dose level Control, time 5 day, vehicle .5 % CMC
# reported MEAN CORPUSCULAR HEMOGLOBIN CONCENTRATION; entries follow
Unit G/DL implied. Number only.

C[C@@H]1CC[C@H]2[C@@H](C)C(=O)O[C@@H]3O[C@@]4(C)CC[C@@H]1[C@]32OO4 [ARTEMISININ]    38.9
COc1ccc(/C=C/C(=O)Nc2ccccc2C(=O)O)cc1OC    37.47
CCOC(=O)[C@H](CCc1ccccc1)N[C@@H](C)C(=O)N1Cc2ccccc2C[C@H]1C(=O)O    40.35
CC(C)(Sc1cc(C(C)(C)C)c(O)c(C(C)(C)C)c1)Sc1cc(C(C)(C)C)c(O)c(C(C)(C)C)c1 [PROBUCOL]    37.47
CC(C(=O)O)c1ccc(-c2ccccc2)c(F)c1 (centres undefined) [FLURBIPROFEN]    37.47
CN1C(=O)CN=C(c2ccccc2)c2cc(Cl)ccc21 [DIAZEPAM]    40.43

Q: For the molecule C=C(CC)C(=O)c1ccc(OCC(=O)O)c(Cl)c1Cl [ETHACRYNIC ACID] , report MEAN CORPUSCULAR HEMOGLOBIN CONCENTRATION.
Result: 39.62

Q: For the molecule CCCCC1C(=O)N(c2ccccc2)N(c2ccccc2)C1=O [PHENYLBUTAZONE] , report MEAN CORPUSCULAR HEMOGLOBIN CONCENTRATION.
Result: 39.63

Q: For the molecule Cc1cnc(C(=O)NCCc2ccc(S(=O)(=O)NC(=O)NC3CCCCC3)cc2)cn1 [GLIPIZIDE] , report MEAN CORPUSCULAR HEMOGLOBIN CONCENTRATION.
Result: 40.35

###

Organism: Rattus norvegicus
Assay: DrugMatrix - Regimen: Daily Repeat
Assay type: toxicity, organism-based, Sprague-Dawley
Design: regimen Daily Repeat, gender Male, age 6-8 weeks
Conditions: in vivo, po, 0 mg/kg, 72 h, tissue Blood, route oral GAVAGE, dose level Control, time 3 day, vehicle .5 % CMC
# reported EOSINOPHIL; entries follow
Unit % implied. Number only.

Solved entries:
COc1ccc(/C=C/C(=O)Nc2ccccc2C(=O)O)cc1OC    1.33
Nc1cccc(Cl)c1    0.52

Q: For the compound CC(=O)O[C@]1(C(C)=O)CC[C@H]2[C@@H]3C=C(Cl)C4=CC(=O)[C@@H]5C[C@@H]5[C@]4(C)[C@H]3CC[C@@]21C [CYPROTERONE ACETATE] , report EOSINOPHIL.
Result: 0

Q: For the compound `Clc1cc2c(cc1Cl)Oc1cc(Cl)c(Cl)cc1O2` , report EOSINOPHIL.
Result: 0.48

Q: For the compound `CN1C(=O)CN=C(c2ccccc2)c2cc(Cl)ccc21` , report EOSINOPHIL.
Result: 0

Q: For the compound `CO[C@H]1C[C@@H]2CC[C@@H](C)[C@@](O)(O2)C(=O)C(=O)N2CCCC[C@H]2C(=O)O[C@H]([C@H](C)C[C@@H]2CC[C@@H](O)[C@H](OC)C2)CC(=O)[C@H](C)/C=C(\C)[C@@H](O)[C@@H](OC)C(=O)[C@H](C)C[C@H](C)/C=C/C=C/C=C/1C` , report EOSINOPHIL.
Result: 0.33

Q: For the compound `CCCCC1C(=O)N(c2ccccc2)N(c2ccccc2)C1=O` , report EOSINOPHIL.
Result: 0.33

Q: For the compound `CCOC(=O)[C@H](CCc1ccccc1)N[C@@H](C)C(=O)N1Cc2ccccc2C[C@H]1C(=O)O` , report EOSINOPHIL.
Result: 0

###

# reported ERYTHROCYTE COUNT; entries follow
Species: Rattus norvegicus
Test: DrugMatrix - Regimen: Daily Repeat
Assay type: toxicity, organism-based, Sprague-Dawley
Set-up: regimen Daily Repeat, gender Male, age 6-8 weeks
Conditions: in vivo, po, 1500 mg/kg, 72 h, tissue Blood, route oral GAVAGE, dose level High, time 3 day, vehicle .5 % CMC

Solved entries:
C[C@@H](O)[C@H]1C(=O)N2C(C(=O)O)=C(S[C@@H]3CN[C@H](C(=O)N(C)C)C3)[C@H](C)[C@H]12    5.72 x10E6/uL
CCOC(=O)[C@H](CCc1ccccc1)N[C@@H](C)C(=O)N1CCC[C@H]1C(=O)O    5.46 x10E6/uL
CC(C)(Sc1cc(C(C)(C)C)c(O)c(C(C)(C)C)c1)Sc1cc(C(C)(C)C)c(O)c(C(C)(C)C)c1    5.49 x10E6/uL
Nc1nc2c(c(=O)[nH]1)N(C=O)C(CNc1ccc(C(=O)N[C@@H](CCC(=O)O)C(=O)O)cc1)CN2 (stereo not given in full)    5.28 x10E6/uL

In the following, a different compound is considered.
Q: For the compound `O=c1cc(-c2ccccc2)oc2ccc3ccccc3c12` , report ERYTHROCYTE COUNT.
Result: 7.11 x10E6/uL

###

Species on record: Rattus norvegicus
Experiment: DrugMatrix - Regimen: Daily Repeat
Assay type: toxicity, organism-based, Sprague-Dawley
Set-up: regimen Daily Repeat, gender Male, age 6-8 weeks
Conditions: in vivo, po, 0 mg/kg, 120 h, tissue Blood, route oral GAVAGE, dose level Control, time 5 day, […]
readout_type: MEAN CORPUSCULAR HEMOGLOBIN (pg)
Unit pg implied. Number only.

Solved entries:
COc1ncnc(NS(=O)(=O)c2ccc(N)cc2)c1OC    25.7
CC(C)Cc1ccc(CC(=O)O)cc1    22.17
CC[C@H](C)C(=O)O[C@H]1C[C@@H](C)C=C2C=C[C@H](C)[C@H](CC[C@@H]3C[C@@H](O)CC(=O)O3)[C@H]21    25

In the following, a different compound is considered.
Q: For the compound CN(CCOc1ccc(CC2SC(=O)NC2=O)cc1)c1ccccn1 (centres undefined) , report MEAN CORPUSCULAR HEMOGLOBIN.
Result: 24.32

###

Species: Rattus norvegicus
Test: DrugMatrix - Regimen: Daily Repeat
Type: toxicity, organism-based, Sprague-Dawley
Design: regimen Daily Repeat, gender Male, age 6-8 weeks
Conditions: in vivo, po, 100 mg/kg, 120 h, tissue Blood, route oral GAVAGE, dose level Low, time 5 day, vehicle .5 % CMC
# reported NEUTROPHIL; entries follow
Unit % implied. Number only.

Solved entries:
Nc1nc2c(c(=O)[nH]1)N(C=O)C(CNc1ccc(C(=O)N[C@@H](CCC(=O)O)C(=O)O)cc1)CN2 (some centres undefined)    6.67
CC=Cc1ccc(O)c(OC)c1    11

Q: For the molecule `CC[C@]1(O)CC[C@H]2[C@@H]3CCC4=CCCC[C@@H]4[C@H]3CC[C@@]21C` , report NEUTROPHIL.
Result: 10.03

Q: For the molecule `C#C[C@]1(O)CC[C@H]2[C@@H]3CCC4=Cc5oncc5C[C@]4(C)[C@H]3CC[C@@]21C` , report NEUTROPHIL.
Result: 10.67

###

Species on record: Rattus norvegicus
Experiment: DrugMatrix - Regimen: Daily Repeat
Type: toxicity, organism-based, Sprague-Dawley
Design: regimen Daily Repeat, gender Male, age 6-8 weeks
Details: in vivo, po, 15 mg/kg, […], tissue Blood, route oral GAVAGE, dose level High, time 14 day
readout_type: ABSOLUTE LYMPHOCYTE (cells/µL)
Unit cells/µL implied. Number only.

Q: For the compound CC(CCc1ccc(O)cc1)NCCc1ccc(O)c(O)c1 (stereo unspecified) , report ABSOLUTE LYMPHOCYTE.
Result: 9620
